These data points were gathered from ChEMBL document CHEMBL1146320.

IC50 values, listed per item
# Test system: SK-N-MC
# method.summary: Antiproliferative activity against human SK-N-MC cells by MTT assay
# Format: functional, cell-based

Sample answers from the record:
* Oc1cccc2ccc(/C=C/c3ccc(Br)cc3)nc12 | > 6.25 µM
* O=C(O)c1ccc2ccc(/C=C/c3cccc(Cl)c3)nc2c1 | > 6.25 µM
* NC(=S)N/N=C/c1ncccc1N [TRIAPINE] | 0.31 µM

Q) For the compound Cc1ccc2c(C(=O)O)cccc2n1 , what IC50 is on record?
A) > 6.25 µM

Q) For the compound Oc1cccc2ccc(/C=C/c3ccc(Cl)cc3)nc12 , what IC50 is on record?
A) 0.77 µM

Q) For the compound O=[N+]([O-])c1cc([N+](=O)[O-])c2cccnc2c1O , what IC50 is on record?
A) > 6.25 µM

Q) For the compound Nc1cc(N)c2cccnc2c1O , what IC50 is on record?
A) > 6.25 µM

Q) For the compound Cc1ccc2c([N+](=O)[O-])cc([N+](=O)[O-])c(O)c2n1 , what IC50 is on record?
A) > 6.25 µM

Q) For the compound O=C(O)c1cccc2nc(/C=C/c3ccc(Cl)cc3)ccc12 , what IC50 is on record?
A) > 6.25 µM

###

# method.summary: Lipophilicity, log K of the compound
# Type: physicochemical
# run.conditions: octanol/water
readout: log K

Sample answers from the record:
* Oc1cccc2ccc(/C=C/c3cccc(Cl)c3)nc12 | 1.5395
* O=C(O)c1ccc2nc(/C=C/c3ccccc3Cl)ccc2c1 | 1.4787
* Nc1cc(N)c2cccnc2c1O | 0.0522
* O=C(O)c1ccc2ccc(/C=C/c3cccc(Cl)c3)nc2c1 | 1.2858
* O=C(O)c1ccc(C(=O)O)c2nc(/C=C/c3cccc(Br)c3)ccc12 | 1.2171
* Oc1ccccc1/N=C/c1ccc2cccc(O)c2n1 | 0.4308

P. Oc1cccc2ccc(/C=C/c3ccc(Br)cc3)nc12
Q. Oc1ccc(/N=C/c2ccc3cccc(O)c3n2)cc1
Q) Identify the entry with the smaller log K: P or Q . // respond with label for picked entry
A) Q

###

# method.summary: Inhibition of photosynthesis in spinach chloroplast
# Type: functional, Spinacia oleracea
readout: IC50 (µM)

Sample answers from the record:
- Nc1cc(N)c2cccnc2c1O: 185
- Oc1cccc2ccc(/C=C/c3cccc(Cl)c3)nc12: 146
- CN(C)C(=O)Nc1ccc(Cl)c(Cl)c1: 1.9

P. O=C(O)c1ccc2nc(/C=C/c3ccccc3Cl)ccc2c1
Q. O=C(O)c1cccc2nc(/C=C/c3ccc(Cl)cc3)ccc12
Q) Identify the entry with the smaller IC50: P or Q . // respond with label for picked entry
A) P

###

# method.summary: Lipophilicity, log K of the compound
# Type: physicochemical
# run.conditions: octanol/water
readout: log K

Sample answers from the record:
* Oc1cccc(/N=C/c2ccc3cccc(O)c3n2)c1 | 0.886
* Cc1nc2ccccc2c(=O)[nH]1 | 0.1515
* Cc1ccc2c(N)cc(N)c(O)c2n1 | 0.2707

1. O=C(O)c1cccc2nc(/C=C/c3ccc(Cl)cc3)ccc12
2. Cc1ccc2c(C(=O)O)cccc2n1
Q) Between 1 and 2 , whose measured log K reads higher? // respond with label for picked entry
A) 1

###

# method.summary: Inhibition of photosynthesis in spinach chloroplast
# Assay type: functional, Spinacia oleracea
pIC50: −log10 of the molar value.
readout: pIC50

* Cc1ccc2c(N)cc(N)c(O)c2n1 | 3.85
* Cc1ccc2c(C(=O)O)cccc2n1 | 3.84
* O=[N+]([O-])c1cc([N+](=O)[O-])c2cccnc2c1O | 4.09

a. Oc1cccc2ccc(/C=C/c3ccc(Cl)cc3)nc12
b. Cc1ccc2c([N+](=O)[O-])cc([N+](=O)[O-])c(O)c2n1
c. Oc1cccc2ccc(/C=C/c3ccc(Br)cc3)nc12
Q) With regard to pIC50, arrange the entries in ascending order, please. Field: ranking. Enter the labels in the order requested.
A) a, c, b
(a: 3.35, c: 3.87, b: 4.59)
